All values here come from paper PMC4444576.

Molecular target: ram seminal vesicle COX-1 (Ovis aries, UniProt P05979)
Construct: ram seminal vesicle COX-1 (1 U) (Sigma–Aldrich); purchased Sigma–Aldrich; host or cells: ram seminal vesicle (tissue of origin)
Sequence (P05979 25-600): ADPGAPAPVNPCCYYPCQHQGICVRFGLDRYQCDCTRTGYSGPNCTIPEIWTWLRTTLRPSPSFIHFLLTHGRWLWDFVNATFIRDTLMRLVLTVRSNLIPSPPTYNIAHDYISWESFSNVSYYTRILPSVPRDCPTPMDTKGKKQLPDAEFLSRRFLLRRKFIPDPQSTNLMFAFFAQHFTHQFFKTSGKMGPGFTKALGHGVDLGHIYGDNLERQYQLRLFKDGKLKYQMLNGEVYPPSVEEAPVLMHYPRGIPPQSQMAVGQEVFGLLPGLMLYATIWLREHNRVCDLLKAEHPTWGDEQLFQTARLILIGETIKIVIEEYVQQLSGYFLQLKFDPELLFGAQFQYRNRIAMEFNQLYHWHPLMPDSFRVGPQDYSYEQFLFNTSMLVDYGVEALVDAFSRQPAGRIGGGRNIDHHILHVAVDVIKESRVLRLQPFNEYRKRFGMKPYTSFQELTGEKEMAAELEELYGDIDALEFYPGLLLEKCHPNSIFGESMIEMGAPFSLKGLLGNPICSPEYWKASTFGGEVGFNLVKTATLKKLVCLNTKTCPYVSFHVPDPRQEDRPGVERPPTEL
Assay: COX-1 inhibition assay (PGE2 EIA)
Type: biochemical
Conditions: read-out: % inhibition at 20µM, COX-1; 20 µM, triplicates
MEASUREMENT LABEL: inhibition at 20 µM (%)

Solved entries:
| COMPOUND | OUTPUT UNIT | REPORTED MEASUREMENT |
| --- | --- | --- |
| COCCCN1CCN(c2ccccc2OC)CC1 | % | -15.1 |
| N[C@@H](Cc1cc(I)c(Oc2cc(I)c(O)c(I)c2)c(I)c1)C(=O)O | % | 12.9 |

1. NS(=O)(=O)c1cc(-c2nnn[nH]2)c(NCc2cccs2)cc1Cl [Azosemide]
2. COC(=O)c1ccccc1C(=O)c1ccc(OCCN2CCCCC2)cc1
Q: Please let me know which one, 1 or 2 , has a lower measured inhibition at 20 µM value. Let me know the label of the one you choose.
A: 1
(1: -9.9%, 2: -4.7%)

----------
Target: human recombinant COX-2 (Homo sapiens)
Construct: purchased Sigma–Aldrich
Assay: COX-2 inhibition assay (PGE2 EIA)
Assay type: biochemical
Conditions: read-out: % inhibition at 20µM, COX-2; 20 µM, triplicates
MEASUREMENT LABEL: inhibition at 20 µM (%)

| COMPOUND | REPORTED MEASUREMENT |
| --- | --- |
| O=C(OCC(O)CO)c1ccccc1Nc1ccnc2cc(Cl)ccc12 (stereo not drawn) [Glafenine] | 3.5 |
| NS(=O)(=O)c1cc(-c2nnn[nH]2)c(NCc2cccs2)cc1Cl [Azosemide] | -1.1 |
| NS(=O)(=O)c1ccc(N2CCCCS2(=O)=O)cc1 [Sulthiame] | -0.9 |
| CC(=O)Oc1ccc(C2(c3ccc(OC(C)=O)cc3)C(=O)Nc3ccccc32)cc1 [Oxyphenisatin acetate] | -1.8 |

1. N[C@@H](Cc1cc(I)c(Oc2cc(I)c(O)c(I)c2)c(I)c1)C(=O)O [Levothyroxin]
2. CC(C)(Oc1ccc(Cl)cc1)C(=O)O [Clofibric acid]
3. NS(=O)(=O)c1cc2c(cc1Cl)N=C(CSCc1ccccc1)NS2(=O)=O [Benzothiazide]
4. C#C[C@]1(O)CC[C@H]2[C@@H]3CCC4=C(CCC(=O)C4)[C@H]3CC[C@@]21C [Norethynodrel]
5. O=S(O)CNc1ccc(S(=O)(=O)c2ccc(NCS(=O)O)cc2)cc1 [Sulfoxone]
Q: Arrange items by their inhibition at 20 µM values in increasing order. Answer with the labels in sequence, matching the requested order.
A: 4, 3, 5, 2, 1

A. O=C(N[C@H](CO)[C@H](O)c1ccc([N+](=O)[O-])cc1)C(Cl)Cl [Chloramphenicol]
B. O=C(O)c1ccc(Cl)c(Cl)c1 [3,4-dichlorobenzoic acid]
C. CC/C(=C(/CC)c1ccc(OP(=O)(O)O)cc1)c1ccc(OP(=O)(O)O)cc1 [Fosfestrol]
Q: Arrange these 3 compounds in increasing order of inhibition at 20 µM. Give me the labels in the order the question wants.
A: B, A, C

A. CC(C)NCC(O)COc1ccc(COCCOC(C)C)cc1 (stereo not drawn) [Bisoprolol]
B. O=S(=O)(O)Oc1ccc(C(c2ccc(OS(=O)(=O)O)cc2)c2ccccn2)cc1 [Picosulfate sodium]
Q: Please tell me which of the two, A or B , has the higher reported inhibition at 20 µM value. // respond with label for picked entry
A: A
(A: 10.2%, B: -11%)

----------
Molecular target: human recombinant COX-2 (Homo sapiens, UniProt P35354)
Construct: purchased Sigma–Aldrich
Sequence (P35354 18-604): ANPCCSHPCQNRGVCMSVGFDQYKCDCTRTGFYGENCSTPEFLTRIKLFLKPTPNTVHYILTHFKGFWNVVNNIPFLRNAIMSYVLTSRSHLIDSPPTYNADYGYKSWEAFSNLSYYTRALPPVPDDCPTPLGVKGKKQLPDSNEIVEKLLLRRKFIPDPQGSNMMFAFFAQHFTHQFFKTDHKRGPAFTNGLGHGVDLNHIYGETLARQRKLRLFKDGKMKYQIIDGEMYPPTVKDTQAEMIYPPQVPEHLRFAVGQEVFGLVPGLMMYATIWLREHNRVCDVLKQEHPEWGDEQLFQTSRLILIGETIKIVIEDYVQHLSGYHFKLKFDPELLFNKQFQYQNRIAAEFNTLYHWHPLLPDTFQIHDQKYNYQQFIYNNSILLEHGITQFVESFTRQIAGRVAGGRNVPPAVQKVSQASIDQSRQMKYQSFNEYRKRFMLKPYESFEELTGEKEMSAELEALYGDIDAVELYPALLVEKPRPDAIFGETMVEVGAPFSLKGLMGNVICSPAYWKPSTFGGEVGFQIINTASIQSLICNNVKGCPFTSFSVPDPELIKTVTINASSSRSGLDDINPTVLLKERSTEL
Test: COX-2 inhibition assay (PGE2 EIA)
Type: biochemical
Conditions: 20 µM, triplicates
MEASUREMENT LABEL: % inhibition at 20µM, COX-2 (%)

| COMPOUND | ASSAY TARGET | OUTPUT UNIT | REPORTED MEASUREMENT |
| --- | --- | --- | --- |
| CC(=O)Nc1ccc(-c2ccccc2)cc1 [p-phenylacetanilide] | human recombinant COX-2 (Homo sapiens, UniProt P35354) | % | -1.6 |

I. O=S(=O)([O-])c1ccc(N=Nc2ccc(O)cc2O)cc1.[Na+]
II. CC(C)(Oc1ccc(Cl)cc1)C(=O)OCCCOC(=O)c1cccnc1 [Ronifibrate]
III. [Cl-].c1ccc(-c2nn(-c3ccccc3)[n+](-c3ccccc3)n2)cc1
IV. O=S(=O)([O-])CCNc1ccc(S(=O)(=O)c2ccc(NCCS(=O)(=O)[O-])cc2)cc1.[Na+].[Na+]
Q: Form: Sort by [% inhibition at 20µM, COX-2] Order [ ascending ] Present the labels in the sequence the task asks for.
A: IV, I, III, II

----------
Target: human recombinant COX-2 (Homo sapiens)
Construct: purchased Sigma–Aldrich
Experiment: COX-2 inhibition assay (PGE2 EIA)
Assay type: biochemical
MEASUREMENT LABEL: IC50

Q: I am curious: what IC50 value has been reported for CNC(=O)Oc1ccc(-c2ccccc2)cc1 [Paxamate (4), Paxamate] ?
A: > 20 µM

----------
Biological target: human recombinant COX-2 (Homo sapiens)
Construct: purchased Sigma–Aldrich
Test: COX-2 inhibition assay (PGE2 EIA)
Format: biochemical
Conditions: read-out: % inhibition at 20µM, COX-2; 20 µM, triplicates
MEASUREMENT LABEL: inhibition at 20 µM (%)

Consider the reported inhibition at 20 µM for these molecules:
| MOLECULE | inhibition at 20 µM [%] |
| --- | --- |
| O=C(O)COc1ccc(C(=O)c2cccs2)c(Cl)c1Cl [Ticrynafen] | 18.4 |
| COC(=O)c1ccccc1C(=O)c1ccc(OCCN2CCCCC2)cc1 [Pitofenone] | 14.1 |
| COCCCN1CCN(c2ccccc2OC)CC1 [Dimetholizine] | -8.7 |

a. Cc1ncc(C[n+]2csc(CCO)c2C)c(N)n1 [Thiamine monochloride]
b. CNC(=C[N+](=O)[O-])NCCSCc1ccc(CN(C)C)o1 [Ranitidine]
Q: Quick one: lower inhibition at 20 µM, a or b ? Kindly give the label for the entry you pick.
A: a
(a: -3.2%, b: 12.7%)

----------
Tested on: COX
Assay: Biological testing for COX-inhibiting activity, overall outcome on both isoforms
Type: biochemical
Conditions: biological testing of this study
MEASUREMENT LABEL: Activity

Below: 5 compounds and their reported Activity.
| COMPOUND | MEASUREMENT LABEL | REPORTED MEASUREMENT |
| --- | --- | --- |
| N[C@@H](Cc1cc(I)c(Oc2cc(I)c(O)c(I)c2)c(I)c1)C(=O)O | Activity | Inactive |
| O=C(O)COc1ccc(C(=O)c2cccs2)c(Cl)c1Cl | Activity | Inactive |
| COc1cc(/C=C2\CCC/C(=C\c3ccc(O)c(OC)c3)C2=O)ccc1O | Activity | Active |
| CNC(=O)Oc1ccc(-c2ccccc2)cc1 [Paxamate (4), Paxamate] | Activity | Active |
| NS(=O)(=O)c1cc(-c2nnn[nH]2)c(NCc2cccs2)cc1Cl [Azosemide] | Activity | Inactive |

Q: Fill blank: measured Activity of the compound Cc1ncc(C[n+]2csc(CCO)c2C)c(N)n1 [Thiamine monochloride] is ____.
A: Inactive

Q: State the recorded Activity for this entry: NS(=O)(=O)c1ccc(N2CCCCS2(=O)=O)cc1
A: Inactive

----------
Molecular target: ram seminal vesicle COX-1 (Ovis aries)
Construct: ram seminal vesicle COX-1 (1 U) (Sigma–Aldrich); purchased Sigma–Aldrich; host or cells: ram seminal vesicle (tissue of origin)
Assay: COX-1 inhibition assay (PGE2 EIA)
Assay type: biochemical
Conditions: read-out: % inhibition at 20µM, COX-1; 20 µM, triplicates
MEASUREMENT LABEL: inhibition at 20 µM (%)

| COMPOUND | REPORTED MEASUREMENT |
| --- | --- |
| NS(=O)(=O)c1cc2c(cc1Cl)N=C(CSCc1ccccc1)NS2(=O)=O [Benzothiazide] | 16.6 |
| CNC(=C[N+](=O)[O-])NCCSCc1ccc(CN(C)C)o1 | -11 |
| O=C(OCC(O)CO)c1ccccc1Nc1ccnc2cc(Cl)ccc12 (stereo not shown) | 3.7 |
| O=S(=O)(O)Oc1ccc(C(c2ccc(OS(=O)(=O)O)cc2)c2ccccn2)cc1 [Picosulfate sodium] | 8.3 |
| O=C(O)COc1ccc(C(=O)c2cccs2)c(Cl)c1Cl | -6.2 |
| Cc1ncc(C[n+]2csc(CCO)c2C)c(N)n1 [Thiamine monochloride] | 13.8 |

P. NS(=O)(=O)c1ccc(N2CCCCS2(=O)=O)cc1
Q. CC(=O)Oc1ccc(C2(c3ccc(OC(C)=O)cc3)C(=O)Nc3ccccc32)cc1 [Oxyphenisatin acetate]
R. CC(C)(Oc1ccc(Cl)cc1)C(=O)O
S. CC(C)NCC(O)COc1ccc(COCCOC(C)C)cc1 (stereo not shown)
Q: // ascending sort on recorded inhibition at 20 µM Answer by listing the labels in the requested order.
A: Q, S, P, R

A. O=C(O)c1ccc(Cl)c(Cl)c1
B. C#C[C@]1(O)CC[C@H]2[C@@H]3CCC4=C(CCC(=O)C4)[C@H]3CC[C@@]21C
Q: When the recorded inhibition at 20 µM values are compared, which is smaller: that of A or that of B ? Lab log: write the label of the selected item as the result.
A: A
(A: -1.8%, B: 21%)

1. O=S(O)CNc1ccc(S(=O)(=O)c2ccc(NCS(=O)O)cc2)cc1
2. CC/C(=C(/CC)c1ccc(OP(=O)(O)O)cc1)c1ccc(OP(=O)(O)O)cc1
Q: Among 1 and 2 , whose measured inhibition at 20 µM is the smaller figure? Answer by stating the label of the chosen item.
A: 1

a. O=C(N[C@H](CO)[C@H](O)c1ccc([N+](=O)[O-])cc1)C(Cl)Cl
b. C#C[C@]1(O)CC[C@H]2[C@@H]3CCc4cc(O)ccc4[C@H]3CC[C@@]21C
Q: Select the item whose inhibition at 20 µM value is smaller, choosing between a and b . Answer by stating the label of the chosen item.
A: a
